Ref: paper PMC4336329

molecular target: human ether-à-go-go-related gene (hERG) potassium channel (human, UniProt Q12809); experiment: primary screen, population patch clamp on CHO cells stably expressing hERG; higher = less effect of the substance;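 further: peak tail current of the secondary pulse compared with the same well before compound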
Sequence (Q12809 whole entry, looked up): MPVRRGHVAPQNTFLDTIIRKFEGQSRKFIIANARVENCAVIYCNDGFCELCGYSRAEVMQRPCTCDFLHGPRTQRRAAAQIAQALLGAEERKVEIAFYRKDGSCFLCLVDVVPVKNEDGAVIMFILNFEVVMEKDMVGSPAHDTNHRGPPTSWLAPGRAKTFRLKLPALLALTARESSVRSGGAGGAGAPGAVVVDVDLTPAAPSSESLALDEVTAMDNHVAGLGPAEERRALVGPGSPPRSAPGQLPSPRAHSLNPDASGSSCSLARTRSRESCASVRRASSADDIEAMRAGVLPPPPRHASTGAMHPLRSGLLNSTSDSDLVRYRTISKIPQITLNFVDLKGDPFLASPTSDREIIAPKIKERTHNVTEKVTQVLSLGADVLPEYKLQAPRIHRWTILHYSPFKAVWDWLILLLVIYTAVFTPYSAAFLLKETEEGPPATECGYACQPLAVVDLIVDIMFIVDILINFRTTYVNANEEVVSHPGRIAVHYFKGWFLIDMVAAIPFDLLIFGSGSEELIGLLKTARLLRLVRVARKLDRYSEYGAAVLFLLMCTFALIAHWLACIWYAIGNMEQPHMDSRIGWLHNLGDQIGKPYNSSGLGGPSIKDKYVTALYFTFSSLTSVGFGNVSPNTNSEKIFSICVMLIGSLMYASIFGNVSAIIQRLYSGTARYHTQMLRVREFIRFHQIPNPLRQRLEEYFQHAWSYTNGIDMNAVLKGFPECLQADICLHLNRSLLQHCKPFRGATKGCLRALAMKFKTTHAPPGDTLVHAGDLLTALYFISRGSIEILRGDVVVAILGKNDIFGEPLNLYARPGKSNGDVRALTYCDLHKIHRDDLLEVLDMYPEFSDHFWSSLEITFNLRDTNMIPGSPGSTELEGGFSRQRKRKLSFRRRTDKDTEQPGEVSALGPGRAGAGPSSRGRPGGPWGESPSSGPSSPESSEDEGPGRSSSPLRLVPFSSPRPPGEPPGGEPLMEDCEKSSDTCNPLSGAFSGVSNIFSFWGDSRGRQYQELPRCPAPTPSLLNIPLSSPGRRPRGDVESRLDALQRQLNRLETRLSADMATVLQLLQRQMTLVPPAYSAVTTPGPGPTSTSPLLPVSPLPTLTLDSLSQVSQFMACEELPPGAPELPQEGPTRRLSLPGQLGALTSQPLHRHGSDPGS
In all, about 310,000 compounds went through this assay and about 14,000 (4.5%) showed an effect of 50% or more. The effect is printed as a negative number. Shown is part of a subset that was picked to be rich in strong results.
quantity_kind: hERG current change (%, negative = inhibition) at 10uM (%)
# unit: % | format: bare number

Sample records with hERG current change (%, negative = inhibition) at 10uM:
1) CCN1CCN(C(=O)c2ccccc2N(Cc2ccccc2)S(=O)(=O)c2ccc(C)cc2)CC1 = -53.2
2) COc1ccc(C2CC(c3ccc(F)cc3)n3nc(NS(C)(=O)=O)nc3N2)cc1 (stereo not shown) = 8.06
3) Cc1cccnc1NC(=O)CNC(=O)c1cccs1 = -8.89

[Q] Tell me its hERG current change (%, negative = inhibition) at 10uM given O=C(/C=C/c1ccccc1Cl)Nc1ccc(-c2nnc3n2CCCCC3)cc1 as the entry.
[A] -6.47

[Q] Tell me its hERG current change (%, negative = inhibition) at 10uM given COC(=O)C1=CN(CCOC23CC4CC(CC(C4)C2)C3)C=C(C(=O)OC)C1c1ccsc1 as the entry.
[A] 10

[Q] Tell me its hERG current change (%, negative = inhibition) at 10uM given O=C(Nc1nc2n(n1)C(c1ccc(F)cc1)CC(c1ccccc1)N2)c1ccco1 (stereo not shown) as the entry.
[A] -57.4

[Q] Tell me its hERG current change (%, negative = inhibition) at 10uM given CCOc1ccc(-n2c(=O)[nH]cc(C(=O)N3CCCc4ccccc43)c2=O)cc1 as the entry.
[A] -9.75

[Q] Tell me its hERG current change (%, negative = inhibition) at 10uM given CC(CCc1ccccc1)NC(=O)c1ccccc1Cl (stereo not shown) as the entry.
[A] -4.82

[Q] Tell me its hERG current change (%, negative = inhibition) at 10uM given Cl.Fc1ccc(CN2C3=NCCN3c3ccccc32)cc1 as the entry.
[A] -54.9

[Q] Tell me its hERG current change (%, negative = inhibition) at 10uM given COc1cc(-c2nc(=S)[nH][nH]2)cc(OC)c1OC as the entry.
[A] 5.94
